Answer each item with its documented cAMP EC50.
- systemUnderTest: human MC3R (human, UniProt P41968 1-323)
- Sequence (P41968 whole entry): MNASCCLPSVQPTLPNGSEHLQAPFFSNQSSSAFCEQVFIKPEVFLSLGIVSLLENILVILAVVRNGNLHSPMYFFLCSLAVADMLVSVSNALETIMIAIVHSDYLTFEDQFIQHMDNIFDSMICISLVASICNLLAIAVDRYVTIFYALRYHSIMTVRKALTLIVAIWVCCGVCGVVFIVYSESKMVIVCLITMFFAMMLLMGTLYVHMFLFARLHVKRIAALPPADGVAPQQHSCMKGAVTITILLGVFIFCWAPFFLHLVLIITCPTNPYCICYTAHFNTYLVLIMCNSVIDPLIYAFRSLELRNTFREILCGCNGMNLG
- assayProcedure: cell-based or functional assay
Positions of bridges follow the written chain, without caps; N, C: chain ends. Non-standard residues stand in square brackets, D forms with d. dPhe(4-Br) = N[C@H](Cc1ccc(Br)cc1)C(=O)O; dTic = O=C(O)[C@H]1Cc2ccccc2CN1; Nle = CCCC[C@H](N)C(=O)O
Give bare numbers, in nM.

Example results:
{"columns": ["binder", "cAMP EC50 [nM]"],
 "data": [
  ["Ac-RC[dA]R[dPhe(4-Br)]R[dF]C-NH2 (disulfide 2-8; SMILES CC(=O)N[C@@H](CCCNC(=N)N)C(=O)N[C@H]1CSSC[C@@H](C(N)=O)NC(=O)[C@@H](Cc2ccccc2)NC(=O)[C@H](CCCNC(=N)N)NC(=O)[C@@H](Cc2ccc(Br)cc2)NC(=O)[C@H](CCCNC(=N)N)NC(=O)[C@@H](C)NC1=O) [CTX-1255]", 7.5],
  ["Ac-RC[dA]R[dPhe(4-Br)]R[dW]CKPV-NH2 (disulfide 2-8; SMILES CC(=O)N[C@@H](CCCNC(=N)N)C(=O)N[C@H]1CSSC[C@@H](C(=O)N[C@@H](CCCCN)C(=O)N2CCC[C@H]2C(=O)N[C@H](C(N)=O)C(C)C)NC(=O)[C@@H](Cc2c[nH]c3ccccc23)NC(=O)[C@H](CCCNC(=N)N)NC(=O)[C@@H](Cc2ccc(Br)cc2)NC(=O)[C@H](CCCNC(=N)N)NC(=O)[C@@H](C)NC1=O) [CTX-1216]", 3.5]
]}

Hey, can you go through the list below and give me cAMP EC50 for every item?
1. Ac-RC[dA]R[dY]R[dW]C-NH2 (disulfide 2-8; SMILES CC(=O)N[C@@H](CCCNC(=N)N)C(=O)N[C@H]1CSSC[C@@H](C(N)=O)NC(=O)[C@@H](Cc2c[nH]c3ccccc23)NC(=O)[C@H](CCCNC(=N)N)NC(=O)[C@@H](Cc2ccc(O)cc2)NC(=O)[C@H](CCCNC(=N)N)NC(=O)[C@@H](C)NC1=O) [CTX-1237]
2. Ac-R[Nle]CR[dPhe(4-Br)]RWC-NH2 (disulfide 3-8; SMILES CCCC[C@H](NC(=O)[C@H](CCCNC(=N)N)NC(C)=O)C(=O)N[C@H]1CSSC[C@@H](C(N)=O)NC(=O)[C@H](Cc2c[nH]c3ccccc23)NC(=O)[C@H](CCCNC(=N)N)NC(=O)[C@@H](Cc2ccc(Br)cc2)NC(=O)[C@H](CCCNC(=N)N)NC1=O) [CTX-1230]
3. Ac-RC[dA]R[dTic]R[dW]C-NH2 (disulfide 2-8) [CTX-1273]
4. Ac-RC[dA]R[dPhe(4-Br)]R[dTic]C-NH2 (disulfide 2-8) [CTX-1256]
5. Ac-RC[dA]R[dPhe(4-Br)]R[dW]CRF-NH2 (disulfide 2-8; SMILES CC(=O)N[C@@H](CCCNC(=N)N)C(=O)N[C@H]1CSSC[C@@H](C(=O)N[C@@H](CCCNC(=N)N)C(=O)N[C@@H](Cc2ccccc2)C(N)=O)NC(=O)[C@@H](Cc2c[nH]c3ccccc23)NC(=O)[C@H](CCCNC(=N)N)NC(=O)[C@@H](Cc2ccc(Br)cc2)NC(=O)[C@H](CCCNC(=N)N)NC(=O)[C@@H](C)NC1=O) [CTX-1220]

1. 79
2. 3.9
3. 4780
4. 592
5. 7.2
